Where do these numbers come from? They come from PubChem BioAssay (NCI).

# Test system: NCI-H522 lung
# Assay protocol: NCI-60 one-dose screen, 48 h
# Condition info: 10 µM unless noted
Compounds without any hit were thinned out: in the full panel of roughly 83,000, 20% have a hit. Calls of active or inactive are those of the source. Rule for the calls: active = growth percent below 10; inactive = the rest.
Labels: TRUE (active), FALSE (inactive)

• O=C(Cn1c[n+](CC(=O)c2ccc([N+](=O)[O-])cc2)c2ccccc21)Nc1cccc2cccnc12 = FALSE
• CC(=O)[C@@H]1CC[C@]2(CO)CC[C@]3(C)[C@H](CC[C@@H]4[C@@]5(C)CCCNC(C)(C)[C@@H]5CC[C@]43C)[C@@H]12 = FALSE
• COc1cc2nc(-c3ccc(Cl)cc3)cc(OCCCN3CCOCC3)c2cc1OC = FALSE
• O=C(NCCc1ccccc1)Nc1ccc2cc3ccc(NC(=O)NCCc4ccccc4)cc3nc2c1 = TRUE
• COc1cc(C2=C(c3cn(C)c4ccccc34)COC2=O)cc(OC)c1OC = TRUE
• O=C(NO)c1ccc(-n2nc(-c3ccccc3)c3ccccc32)cc1 = TRUE
• COc1cccc(-c2nc3occn3c2-c2ccnc(NCCCNS(=O)(=O)c3ccc(C(F)(F)F)cc3)n2)c1 = FALSE
• COc1cc(C(=O)Nc2cc3c(cc2Oc2cc(C)cc(C)c2)C(=O)N(C)[C@@H](CC(=O)N(C)O)C(=O)N3)c(Br)c(OC)c1OC = TRUE
• COc1ccc(-c2nc3sccn3c2/C=C/C(=O)c2ccc3c(c2)OCO3)cc1 = FALSE
• CCN1C(=O)/C(=C/C(=O)OC)S/C1=N\NC(=O)c1cc2ccc1/C=C\c1ccc(cc1)/C=C\2 = FALSE
• Cc1c2cc[nH]c(=O)c2c(C)c2c1[nH]c1cc(OCCN3CCN(C)CC3)ccc12 = TRUE
• CC(=O)c1cc2c(N)c(C(=O)Nc3cccc4ccncc34)sc2nc1C = FALSE
• Cn1ccnc1C(=O)/C=C/c1ccc(CC(=O)NC2CCCCC2)cc1 = FALSE
